Test system: AGS Stomach
procedureText: Cytotoxic effect by MTT assay, 48 h
statedConditions: 48 h, read-out: IC50 Values
recordedMetric: IC50 (µM)
Hi! Could you send only the number? It should be in µM, unit omitted.

q: // fetch IC50 given entry COc1cccc2c1C(=O)c1c(O)c3c(c(O)c1C2=O)C[C@@](O)(C(=O)CO)C[C@@H]3O[C@H]1C[C@H](N)[C@H](O)[C@H](C)O1
a: 4.3

###

procedureText: Cytotoxic effect by MTT assay, 48 h
recordedMetric: cytotoxicity at 48 h, 0.1 µM (%)
Hi! Could you send only the number? It should be in %, unit omitted.

q: // fetch cytotoxicity at 48 h, 0.1 µM given entry COc1cccc2c1C(=O)c1c(O)c3c(c(O)c1C2=O)C[C@@](O)(C(=O)CO)C[C@@H]3O[C@H]1C[C@H](N)[C@H](O)[C@H](C)O1
a: 5.3

Hello, the source for this data is patent US20250302974A1, in case you need it.
